# Test system: MOLT-4 leukemia
# ASSAY INFO: NCI-60 one-dose screen, 48 h (100 = growth as untreated, 0 = no growth, -100 = all killed)
# EXPERIMENTAL CONDITIONS: 10 µM unless noted
# Procedure: Growth inhibition of the MOLT-4 human tumor cell line is measured as a screen for anti-cancer activity. Cells are grown in 96 well plates and exposed to the test compound for 48 hours. Compounds are tested at a single concentration, which is 10^-5 M for most compounds. The reported endpoint is percent growth (GI% or GIPRCNT), where numbers from 0 - 100% represent growth inhibition, and numbers from -100% - 0 represent cell death. For example, a value of 40 represents 60% growth inhibition. […]
About 83,000 compounds went through this panel and 20% of them were active in at least one assay; those are over-represented in the sample as a whole.
Rule for this label: true means growth is less than 90%; false means growth is at least 90%.

## Input I'd appreciate it if you could check whether "O=C(Nc1ccncc1)C(=O)c1cn(S(=O)(=O)c2ccccc2F)c2ccccc12" has growth smaller than 90%.
## Output true

## Input Find out if reported growth for "COc1ccc(N2CCN(Cc3cc(C(=O)/C=C/c4c[nH]c5ccccc45)ccc3O)CC2)cc1" is less than 90%
## Output false

## Input Just wondering, is growth of "O=C(Nc1cccc(-n2cc(-c3ccncc3)c(-c3ccc(Cl)c(O)c3)n2)c1)Nc1cccc(C(F)(F)F)c1" below 90%?
## Output true

## Input Is 90% strictly greater than the compound's reported growth? compound: "COc1cc(-c2nn(C(=O)NS(=O)(=O)c3ccccc3)cc2-c2ccncc2)ccc1Cl"
## Output true

## Input # TODO verify growth < 90% strictly for this compound: COc1ccc(C2C=C(c3ccc(Cl)cc3)N=C3SC=C(C)N32)c(Br)c1 (centres undefined)
## Output true

## Input Quick check: growth of C=C1CCC2C3(C)COC(c4c(OC)cccc4OC)OC3CCC2(C)C1C/C=C1/C(=O)OCC1O (centres undefined) under 90%?
## Output true

## Input Record "CCOC(=O)c1c(NS(=O)(=O)c2ccc(C)cc2)sc2c1CCC1(C2)OCCO1" : is its growth strictly below 90%?
## Output true

## Input Hello, is growth of the following compound strictly smaller than 90%? "CCN(CC)CCOc1ccc(/C(=C(/C)c2ccccc2)c2ccc(OC(C)=O)cc2)cc1"
## Output false

## Input Please indicate whether the reported growth of "CCCCCCCC/C=C/CCCCCCCC1=NC(C)(C)CN1C(C)(C)CO" is strictly below 90%.
## Output true

----------
# Test system: SNB-75 CNS
# ASSAY INFO: NCI-60 one-dose screen, 48 h (100 = growth as untreated, 0 = no growth, -100 = all killed)
# EXPERIMENTAL CONDITIONS: 10 µM
Compounds without any hit were thinned out: in the full panel of roughly 83,000, 20% have a hit.
MEASURED METRIC: growth (%)
Hi! Could you send only the number? It should be in %, unit omitted.

## Input Return reported growth. Input compound: "O=c1cc(Cc2ccc([N+](=O)[O-])cc2)[nH]c(=O)[nH]1"
## Output 94.4

## Input Supply growth value. Item: "Cc1ccc(S(=O)(=O)n2cc(C(=O)C(=O)N3CCOCC3)c3ccccc32)cc1"
## Output 104

## Input Identify measured growth corresponding to "O=C(O)Cc1cccc(=O)c(O)c1C(=O)O"
## Output 107

## Input Tell us which growth value is on record for "COc1ccncc1S(=O)(=O)NC(=O)Nc1ccc(Cl)c(Cl)c1"
## Output 78.3

## Input State its growth for this compound: "COc1ccc(CCNC2=CC(=O)CCC2)cc1OC"
## Output 92.9

## Input Please report the measured growth for COc1ccc2c(c1)C(c1cc(OC)c3c(c1)OCO3)C1=C(COC1=O)N2 (configuration not stated)
## Output 43.6

## Input Using known records, supply growth for "O=c1[nH]c(Nc2ccc(S(=O)(=O)O)cc2)nc2nc(Nc3ccc(NC(=S)Nc4ccccc4)cc3)nc(-c3ccc(O)cc3O)c12"
## Output 96.3

## Input Give recorded growth. "CCCCCc1cc[n+](CC(=O)c2ccc([N+](=O)[O-])cc2)cc1"
## Output 89.6

## Input Answer with the recorded growth for the compound listed here: "c1cc2[nH]ncc2cc1-c1nc2ccc3[nH]ncc3c2c2c1CCC2"
## Output 34.9

## Input Supply growth value. Item: O=C(Oc1ccccc1[N+](=O)[O-])C1CCCN1C(=O)OCc1ccccc1 (configuration not stated)
## Output 99

## Input Identify measured growth corresponding to CCOC(=O)C1CCNC(=O)C1=O (configuration not stated)
## Output 101

## Input Give the value of growth reported for the following: O=C1C2(c3ccccc3)C(c3ccccc3)=C(c3ccccc3)C1(c1ccccc1)C1CC=CC12 (configuration not stated)
## Output 83.4

## Input Please supply the value of reported growth for the item "COc1ccc(NC(=O)CSc2nc(-c3ccc(OC)c(OC)c3)cc(-c3cc(OC)c(OC)c(OC)c3)n2)cc1"
## Output 76

## Input Look up growth of "CC(C)NCCCNC1=C(Cl)C(=O)c2ccccc2C1=O" and report it.
## Output 79.4

## Input Given the compound "C=C(C)[C@@H]1C[C@@H]2Cc3ccc(Cl)c(C)c3N1O2" , write its reported growth.
## Output 93

## Input Give the reported value of growth for this record: O=C(CSC1CCc2ccccc21)N/N=C/c1ccccc1O (configuration not stated)
## Output 71.7

## Input Tell me measured growth for COc1cc(C2CC(c3ccc4c(c3)OCO4)=NN2C=O)cc(OC)c1OC (configuration not stated) please.
## Output -13.5

Data provenance is PubChem BioAssay (NCI).
